test: Protease stability in simulated intestinal fluids (FaSSIF) (Table 7); format: in vitro ADME; conditions: fassif with pancreatin, 60 min, 37° C., read-out: Remaining percentage of peptide compound, FaSSIF 60 (min)
Numbered stars: 1 amine (or outer) side, 2 acyl side, 3 side chain; on linkers, the order of the positions; unused ones are H or OH. Bridge positions count the residues as written; N and C are the ends. Square brackets hold non-standard residues; d marks the D form. Peptide text beside a SMILES is read from it. * marks the point of attachment. Lys(Me,(CH2)4NMe(CH2)5CO) = CN(CCCCCC(=O)[*:3])CCCCN(C)CCCC[C@H](N[*:1])C(=O)[*:2]; Lys(Me,(CH2)4NMe(CH2)4CO) = CN(CCCCC(=O)[*:3])CCCCN(C)CCCC[C@H](N[*:1])C(=O)[*:2]; Trp(7-Me) = Cc1cccc2c(C[C@H](N)C(=O)O)c[nH]c12; Trp(1-Me) = Cn1cc(C[C@H](N)C(=O)O)c2ccccc21; NH(2-(3-pyridyl)ethyl) = c1cncc(CCN*)c1; Sebacoyl = O=C(CCCCCCCCC(=O)[*:2])[*:1]; 2Nal = N[C@@H](Cc1ccc2ccccc2c1)C(=O)O; 3Pal = N[C@@H](Cc1cccnc1)C(=O)O; Lys(Me) = CNCCCC[C@H](N)C(=O)O; AEEEA = NCCOCCOCCOCC(=O)O; Aun = NCCCCCCCCCCC(=O)O; Thp = NC1(C(=O)O)CCOCC1; Me2NCH2CH2 = CN(C)CC*; Aib = CC(C)(N)C(=O)O; Sar = CNCC(=O)O
READOUT_LABEL: remaining at 1 h, 1 µM (%)
Response body: numeric value in %, unit text excluded.

So what does the record say about remaining at 1 h, 1 µM for CC(=O)NCCCC[C@@H]1NC(=O)[C@H](Cc2c[nH]c3c(C)cccc23)NC(=O)CCCCCN(C)CCCCN(C)CCCC[C@@H](C(=O)NCC(=O)N[C@@H](Cc2cccnc2)C(=O)N(C)CC(N)=O)NC(=O)C(C)(C)NC(=O)[C@H](Cc2ccc3ccccc3c2)NC(=O)[C@H](Cc2ccc(OCCN(C)C)cc2)NC(=O)C2(CCOCC2)NC1=O [compound 27] ([Trp(7-Me)]K(Ac)[Thp]Y(Me2NCH2CH2)[2Nal][Aib][Lys(Me,(CH2)4NMe(CH2)5CO)]G[3Pal][Sar]-NH2; lactam N-7) ?
97

So what does the record say about remaining at 1 h, 1 µM for Cc1cccc2c(C[C@@H]3NC(=O)COCCOCCOCCNC(=O)CC[C@@H](C(=O)N[C@@H](CC(N)=O)C(=O)N[C@@H](Cc4cccnc4)C(=O)N(C)CC(N)=O)NC(=O)C(C)(C)NC(=O)[C@H](Cc4ccc5ccccc5c4)NC(=O)[C@H](Cc4ccc(OCCN(C)C)cc4)NC(=O)C4(CCOCC4)NC(=O)[C@H](CCC(N)=O)NC3=O)c[nH]c12 [compound 14] ([AEEEA][Trp(7-Me)]Q[Thp]Y(Me2NCH2CH2)[2Nal][Aib]EN[3Pal][Sar]-NH2; lactam N-8) ?
94

So what does the record say about remaining at 1 h, 1 µM for Cc1cccc2c(C[C@@H]3NC(=O)CCCCN(C)CCCCN(C)CCCC[C@@H](C(=O)NCC(=O)N[C@@H](Cc4cccnc4)C(=O)N(C)CC(N)=O)NC(=O)C(C)(C)NC(=O)[C@H](Cc4ccc5ccccc5c4)NC(=O)[C@H](Cc4ccc(OCCN(C)C)cc4)NC(=O)C4(CCOCC4)NC(=O)[C@H](CCC(N)=O)NC3=O)c[nH]c12 [compound 28] ([Trp(7-Me)]Q[Thp]Y(Me2NCH2CH2)[2Nal][Aib][Lys(Me,(CH2)4NMe(CH2)4CO)]G[3Pal][Sar]-NH2; lactam N-7) ?
97

So what does the record say about remaining at 1 h, 1 µM for CC(=O)NCCCC[C@@H]1NC(=O)[C@H](Cc2c[nH]c3c(C)cccc23)NC(=O)CCCCN(C)CCCCN(C)CCCC[C@@H](C(=O)NCC(=O)N[C@@H](Cc2cccnc2)C(=O)N(C)CC(N)=O)NC(=O)C(C)(C)NC(=O)[C@H](Cc2ccc3ccccc3c2)NC(=O)[C@H](Cc2ccc(OCCN(C)C)cc2)NC(=O)C2(CCOCC2)NC1=O [compound 29] ([Trp(7-Me)]K(Ac)[Thp]Y(Me2NCH2CH2)[2Nal][Aib][Lys(Me,(CH2)4NMe(CH2)4CO)]G[3Pal][Sar]-NH2; lactam N-7) ?
96

So what does the record say about remaining at 1 h, 1 µM for Cc1cccc2c(C[C@@H]3NC(=O)CCCCCCCCCCNC(=O)CC[C@@H](C(=O)N[C@@H](CC(N)=O)C(=O)N[C@@H](Cc4cccnc4)C(=O)N(C)CC(N)=O)NC(=O)C(C)(C)NC(=O)[C@H](Cc4ccc5ccccc5c4)NC(=O)[C@H](Cc4ccc(OCCN(C)C)cc4)NC(=O)C(C)(C)NC(=O)[C@H](CCC(N)=O)NC3=O)c[nH]c12 [compound 35] ([Aun][Trp(7-Me)]Q[Aib]Y(Me2NCH2CH2)[2Nal][Aib]EN[3Pal][Sar]-NH2; lactam N-8) ?
89

So what does the record say about remaining at 1 h, 1 µM for Cc1cccc2c(C[C@@H]3NC(=O)CCCCCCCCC(=O)N(C)CCCC[C@@H](C(=O)N[C@@H](CC(N)=O)C(=O)N[C@@H](Cc4cccnc4)C(=O)N(C)CC(N)=O)NC(=O)C(C)(C)NC(=O)[C@H](Cc4ccc5ccccc5c4)NC(=O)[C@H](Cc4ccc(OCCN(C)C)cc4)NC(=O)C4(CCOCC4)NC(=O)[C@H](CCC(N)=O)NC3=O)c[nH]c12 [compound 19] ([Trp(7-Me)]Q[Thp]Y(Me2NCH2CH2)[2Nal][Aib][Lys(Me)]N[3Pal][Sar]-NH2; linker N-7 via Sebacoyl) ?
80

So what does the record say about remaining at 1 h, 1 µM for Cc1cccc2c(C[C@@H]3NC(=O)CCCCCCCCC(=O)N(C)CCCC[C@@H](C(=O)NCC(=O)NCCc4cccnc4)NC(=O)C(C)(C)NC(=O)[C@H](Cc4ccc5ccccc5c4)NC(=O)[C@H](Cc4ccc(OCCN(C)C)cc4)NC(=O)C4(CCOCC4)NC(=O)[C@H](CC(C)C)NC3=O)c[nH]c12 [compound 17] ([Trp(7-Me)]L[Thp]Y(Me2NCH2CH2)[2Nal][Aib][Lys(Me)]G-{NH(2-(3-pyridyl)ethyl)}; linker N-7 via Sebacoyl) ?
95

So what does the record say about remaining at 1 h, 1 µM for CC(=O)NCCCC[C@@H]1NC(=O)[C@H](Cc2c[nH]c3c(C)cccc23)NC(=O)CCCCCN(C)CCCCN(C)CCCC[C@@H](C(=O)N[C@@H](CC(N)=O)C(=O)N[C@@H](Cc2cccnc2)C(=O)N(C)CC(N)=O)NC(=O)C(C)(C)NC(=O)[C@H](Cc2ccc3ccccc3c2)NC(=O)[C@H](Cc2ccc(OCCN(C)C)cc2)NC(=O)C2(CCOCC2)NC1=O [compound 18] ([Trp(7-Me)]K(Ac)[Thp]Y(Me2NCH2CH2)[2Nal][Aib][Lys(Me,(CH2)4NMe(CH2)5CO)]N[3Pal][Sar]-NH2; lactam N-7) ?
95

So what does the record say about remaining at 1 h, 1 µM for CN(C)CCOc1ccc(C[C@@H]2NC(=O)C3(CCOCC3)NC(=O)[C@H](CCC(N)=O)NC(=O)[C@H](Cc3cn(C)c4ccccc34)NC(=O)CCCCN(C)CCCCN(C)CCCC[C@@H](C(=O)NCC(=O)N[C@@H](Cc3cccnc3)C(=O)N(C)CC(N)=O)NC(=O)C(C)(C)NC(=O)[C@H](Cc3ccc4ccccc4c3)NC2=O)cc1 [compound 30] ([Trp(1-Me)]Q[Thp]Y(Me2NCH2CH2)[2Nal][Aib][Lys(Me,(CH2)4NMe(CH2)4CO)]G[3Pal][Sar]-NH2; lactam N-7) ?
88
